Cited source for all entries: patent US9095631B2

# measurement.target: MRP1 (Homo sapiens)
# protocol.notes: Inhibition of the transport of Calcein-AM on MDCK cell lines overexpressing MDR proteins (MRP1)
# measurement.parameters: Calcein-AM transport inhibition, MDCK cells overexpressing MRP1
reported.metric: EC50 (µM)

COc1cc2c(cc1OC)CN(Cc1coc(-c3ccc4ccccc4c3)n1)CC2 [R2 = H, R1 = H, X = O]; 33.2
COc1cc2c(cc1OC)CN(Cc1coc(-c3ccc4cc(F)ccc4c3)n1)CC2 [R2 = H, R1 = F, X = O]; 31.8

###

# measurement.target: P-gp (Homo sapiens)
# Sequence (P08183 whole entry): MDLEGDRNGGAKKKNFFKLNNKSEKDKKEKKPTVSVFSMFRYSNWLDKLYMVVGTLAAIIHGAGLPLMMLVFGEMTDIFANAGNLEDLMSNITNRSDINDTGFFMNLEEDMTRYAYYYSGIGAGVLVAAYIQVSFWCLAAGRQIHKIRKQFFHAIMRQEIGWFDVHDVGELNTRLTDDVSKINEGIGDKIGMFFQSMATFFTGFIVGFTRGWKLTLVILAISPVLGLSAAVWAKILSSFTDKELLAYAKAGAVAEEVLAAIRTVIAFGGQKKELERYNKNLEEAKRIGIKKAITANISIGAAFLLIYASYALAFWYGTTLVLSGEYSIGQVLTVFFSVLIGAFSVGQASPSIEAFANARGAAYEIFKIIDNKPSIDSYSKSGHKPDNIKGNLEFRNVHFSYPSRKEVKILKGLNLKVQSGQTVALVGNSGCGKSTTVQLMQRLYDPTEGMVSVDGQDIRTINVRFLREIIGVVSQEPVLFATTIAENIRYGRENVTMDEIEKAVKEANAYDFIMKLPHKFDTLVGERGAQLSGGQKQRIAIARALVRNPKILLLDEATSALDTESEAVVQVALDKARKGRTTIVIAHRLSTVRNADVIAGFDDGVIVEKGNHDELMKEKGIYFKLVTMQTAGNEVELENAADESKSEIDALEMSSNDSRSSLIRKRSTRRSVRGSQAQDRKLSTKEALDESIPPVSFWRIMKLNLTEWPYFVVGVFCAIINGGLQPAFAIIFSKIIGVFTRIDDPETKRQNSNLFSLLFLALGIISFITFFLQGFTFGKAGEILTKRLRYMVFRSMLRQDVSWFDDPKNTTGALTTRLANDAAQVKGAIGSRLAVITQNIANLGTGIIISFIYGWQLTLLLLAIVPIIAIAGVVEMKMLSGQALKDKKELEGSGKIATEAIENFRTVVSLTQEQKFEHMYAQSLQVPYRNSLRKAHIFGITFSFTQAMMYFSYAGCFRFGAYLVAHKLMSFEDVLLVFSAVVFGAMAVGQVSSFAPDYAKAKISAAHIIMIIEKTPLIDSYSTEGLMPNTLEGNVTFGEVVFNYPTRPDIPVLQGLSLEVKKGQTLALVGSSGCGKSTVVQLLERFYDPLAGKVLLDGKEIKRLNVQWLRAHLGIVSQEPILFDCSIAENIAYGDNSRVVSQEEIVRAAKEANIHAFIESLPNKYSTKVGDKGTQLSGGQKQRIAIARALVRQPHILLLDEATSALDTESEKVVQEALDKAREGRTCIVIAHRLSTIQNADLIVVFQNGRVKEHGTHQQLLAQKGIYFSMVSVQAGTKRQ
# protocol.notes: Inhibition of the transport of Calcein-AM on MDCK cell lines overexpressing MDR proteins (P-gp)
# Assay type: cell-based
# Parameters: expressed in transfected cells; host or cells: MDCK
# measurement.parameters: MDCK cells overexpressing P-gp
# Procedure: 3) Inhibition of the Transport of Calceina-AM and of Rhodamine-123 on MDCK Cell Lines Overexpressing MDR Proteins. In this assay the inhibition of the transport of a BCRP fluorescent substrate, Rhodamina-123, or of a P-gp or MRP1 profluorescent substrate, Calcein-AM, is determined. Calcein-AM, entering the cell membrane is […] by citosolic esterase to fluorescent calcein (that is not a P-gp substrate) leading to a fluorescent signal. […]
reported.metric: EC50 (nM)

Look over these answered cases.
COc1cc2c(cc1OC)CN(Cc1csc(-c3ccc4cc(Br)ccc4c3)n1)CC2; 3700
COc1cc2c(cc1OC)CN(Cc1coc(-c3ccc4cc(O)ccc4c3)n1)CC2; 2800
COc1ccc2cc(-c3nc(CN4CCc5cc(OC)c(OC)cc5C4)cs3)ccc2c1; 1000

P. COc1cc2c(cc1OC)CN(Cc1coc(-c3ccc4cc(F)ccc4c3)n1)CC2
Q. COc1cc2c(cc1OC)CN(Cc1coc(-c3ccc4ccccc4c3)n1)CC2
INPUT: Could you tell me which of P and Q has the lower EC50 reading? Reply briefly: the label of your chosen item.
OUTPUT: Q

###

# measurement.target: P-gp (Homo sapiens)
# protocol.notes: Apparent Permeability Determination (Papp) on Caco-2 cells overexpressing P-gp
# Format: in vitro ADME
# measurement.parameters: ratio Papp-BA/Papp-AB, 18-20 transported by P-gp, 2-18 modulator, 1-2 not transported
reported.metric: efflux ratio

COc1cc2c(cc1OC)CN(Cc1csc(-c3ccc4cc(Br)ccc4c3)n1)CC2 [R2 = H, R1 = Br, X = S]; 6

A. COc1cc2c(cc1OC)CN(Cc1coc(-c3ccc4cc(O)ccc4c3)n1)CC2 [R2 = H, R1 = OH, X = O]
B. COc1ccc2cc(-c3nc(CN4CCc5cc(OC)c(OC)cc5C4)cs3)ccc2c1 [R2 = H, R1 = OCH3, X = S]
C. COc1cc2c(cc1OC)CN(Cc1coc(-c3ccc4cc(F)ccc4c3)n1)CC2 [R2 = H, R1 = F, X = O]
D. COc1cc2c(cc1OC)CN(Cc1coc(-c3ccc4ccccc4c3)n1)CC2 [R2 = H, R1 = H, X = O]
INPUT: Descending sort on efflux ratio required. // rank by listing labels in the order requested
OUTPUT: B, A, C, D
(B: 6, A: 1.6, C: 0.8, D: 0.4)

###

# measurement.target: MRP1 (Homo sapiens, UniProt P33527)
# Sequence (P33527 whole entry): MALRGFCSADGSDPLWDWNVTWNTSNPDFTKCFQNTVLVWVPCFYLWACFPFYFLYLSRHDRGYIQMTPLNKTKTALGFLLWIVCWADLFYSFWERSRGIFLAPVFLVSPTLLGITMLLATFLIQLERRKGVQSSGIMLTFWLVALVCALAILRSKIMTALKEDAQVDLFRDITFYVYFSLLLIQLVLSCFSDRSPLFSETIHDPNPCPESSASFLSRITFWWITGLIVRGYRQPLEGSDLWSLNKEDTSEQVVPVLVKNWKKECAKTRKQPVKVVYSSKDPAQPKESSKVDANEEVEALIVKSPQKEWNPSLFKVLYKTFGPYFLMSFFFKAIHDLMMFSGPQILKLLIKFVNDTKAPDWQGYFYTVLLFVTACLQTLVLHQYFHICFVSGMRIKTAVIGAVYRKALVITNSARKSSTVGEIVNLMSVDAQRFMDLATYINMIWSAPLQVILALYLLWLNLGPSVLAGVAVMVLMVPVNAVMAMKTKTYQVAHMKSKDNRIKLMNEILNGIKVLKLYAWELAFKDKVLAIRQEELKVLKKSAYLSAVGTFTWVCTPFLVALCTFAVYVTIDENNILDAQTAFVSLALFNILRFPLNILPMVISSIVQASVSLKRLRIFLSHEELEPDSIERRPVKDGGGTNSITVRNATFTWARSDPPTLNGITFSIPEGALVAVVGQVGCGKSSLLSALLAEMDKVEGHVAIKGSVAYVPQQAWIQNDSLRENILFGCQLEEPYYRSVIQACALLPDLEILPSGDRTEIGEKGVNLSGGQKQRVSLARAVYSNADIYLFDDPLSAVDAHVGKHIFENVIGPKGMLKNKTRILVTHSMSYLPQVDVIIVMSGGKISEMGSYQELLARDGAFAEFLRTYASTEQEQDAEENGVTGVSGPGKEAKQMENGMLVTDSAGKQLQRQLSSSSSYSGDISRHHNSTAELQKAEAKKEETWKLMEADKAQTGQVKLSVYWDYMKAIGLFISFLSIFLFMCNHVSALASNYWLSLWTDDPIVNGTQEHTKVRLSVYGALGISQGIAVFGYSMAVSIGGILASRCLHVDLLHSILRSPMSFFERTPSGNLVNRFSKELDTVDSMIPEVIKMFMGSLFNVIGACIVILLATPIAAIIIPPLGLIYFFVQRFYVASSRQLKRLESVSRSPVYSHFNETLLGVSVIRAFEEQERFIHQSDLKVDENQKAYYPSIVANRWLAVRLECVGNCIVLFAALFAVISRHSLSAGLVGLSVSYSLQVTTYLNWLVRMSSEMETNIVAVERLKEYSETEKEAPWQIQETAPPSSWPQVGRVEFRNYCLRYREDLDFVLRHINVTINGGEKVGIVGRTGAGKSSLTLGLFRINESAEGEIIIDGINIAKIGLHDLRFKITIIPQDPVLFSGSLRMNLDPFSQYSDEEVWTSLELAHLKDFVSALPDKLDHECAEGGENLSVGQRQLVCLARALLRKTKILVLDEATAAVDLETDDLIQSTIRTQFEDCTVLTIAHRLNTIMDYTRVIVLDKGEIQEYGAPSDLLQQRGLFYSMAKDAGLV
# protocol.notes: Inhibition of the transport of Calcein-AM on MDCK cell lines overexpressing MDR proteins (MRP1)
# measurement.parameters: Calcein-AM transport inhibition, MDCK cells overexpressing MRP1
pEC50: −log10 of the molar value.
reported.metric: pEC50

Look over these answered cases.
COc1ccc2cc(-c3nc(CN4CCc5cc(OC)c(OC)cc5C4)cs3)ccc2c1 [R2 = H, R1 = OCH3, X = S]; < 4.00
COc1cc2c(cc1OC)CN(Cc1coc(-c3ccc4cc(O)ccc4c3)n1)CC2 [R2 = H, R1 = OH, X = O]; < 4.00

Moving on to another molecule below.
INPUT: Param item = COc1cc2c(cc1OC)CN(Cc1csc(-c3ccc4cc(Br)ccc4c3)n1)CC2 [R2 = H, R1 = Br, X = S] ; retrieve measured pEC50.
OUTPUT: < 4.00
